System under test: IRAK4 enzyme (Homo sapiens (Human), UniProt Q9NWZ3)
Sequence (Q9NWZ3 whole entry): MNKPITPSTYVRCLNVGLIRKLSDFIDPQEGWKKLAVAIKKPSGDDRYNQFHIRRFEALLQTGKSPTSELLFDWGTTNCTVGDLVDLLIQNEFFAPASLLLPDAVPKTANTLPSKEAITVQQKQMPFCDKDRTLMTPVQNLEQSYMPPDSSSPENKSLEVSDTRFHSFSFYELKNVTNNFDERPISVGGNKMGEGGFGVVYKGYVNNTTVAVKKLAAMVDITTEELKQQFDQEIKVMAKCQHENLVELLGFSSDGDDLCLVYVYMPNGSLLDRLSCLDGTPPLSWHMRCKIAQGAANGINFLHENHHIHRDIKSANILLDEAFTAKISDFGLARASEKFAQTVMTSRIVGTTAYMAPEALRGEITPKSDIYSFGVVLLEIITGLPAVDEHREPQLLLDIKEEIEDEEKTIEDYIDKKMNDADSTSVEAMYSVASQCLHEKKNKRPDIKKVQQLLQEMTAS
Test description: biochemical
Type: biochemical
Measurement parameters: IRAK4 enzyme, TR-FRET, 500 μM ATP
Property name: pIC50
Expect pIC50 as a plain number equal to -log10 of the molar concentration.

COC[C@@H]1CCN1c1ccc(Nc2cc(-c3ccc4cc(C#N)cnn34)ncc2C(=O)NC[C@@H](F)C(C)(C)O)cn1; 9.00

The recorded pIC50 for entry `CC(C)(O)[C@H](F)CNC(=O)c1cnc(-c2ccc3cc(C#N)cnn23)cc1NCC1CNC1` equals 7.82

The recorded pIC50 for entry `CC(=O)NC12CC(Nc3cc(-c4ccc5cc(C#N)cnn45)ncc3C(=O)NCC(F)F)(C1)C2` equals 8.52

###

System under test: IRAK4 enzyme (Homo sapiens (Human))
Test description: biochemical
Assay type: biochemical
Measurement parameters: IRAK4 enzyme, TR-FRET, 500 μM ATP
Property name: pIC50
Expect pIC50 as a plain number equal to -log10 of the molar concentration.

Solved cases below.
CC(C)Nc1cc(-c2ccc3cc(C#N)cnn23)ncc1C(=O)N[C@H]1CCOC1 [Example 36]; 7.82
CC(C)(CCNC(=O)c1cnc(-c2ccc3cc(C#N)cnn23)cc1NC12CCC(O)(CC1)CC2)NC(=O)OC(C)(C)C [Example 347]; 8.70
CN1CCC[C@@H](Nc2cc(-c3ccc4cc(C#N)cnn34)ncc2C(=O)NC[C@@H](F)C(C)(C)O)C1 [Example 259]; 8.22
CC(C)(O)C1CCC(Nc2cc(-c3ccc4cc(C#N)cnn34)ncc2C(=O)NC[C@@H](F)C(C)(C)O)CC1 (some centres unmarked) [Example 273]; 8.70
COC(=O)NC[C@@H]1CCCN1c1ccc(Nc2cc(-c3ccc4cc(C#N)cnn34)ncc2C(=O)NC[C@@H](F)C(C)(C)O)cn1 [Example 879]; 9.00

The recorded pIC50 for entry COC(=O)C1CC2(CC(NC(=O)c3cnc(-c4ccc5cc(C#N)cnn45)cc3NC(C)C)C2)C1 (centres unmarked) [Example 60] equals 9.00

The recorded pIC50 for entry Cc1noc(C)c1CNc1cc(-c2ccc3cc(C#N)cnn23)ncc1C(=O)NC[C@@H](F)C(C)(C)O [Example 107] equals 7.77

The recorded pIC50 for entry CC(C)C(=O)NC[C@H]1C[C@H](Nc2cc(-c3ccc4cc(C#N)cnn34)ncc2C(=O)NC[C@@H](F)C(C)(C)O)C1 [Example 938] equals 9.00

The recorded pIC50 for entry CC(C)COC(=O)N[C@H]1CC[C@H](Nc2cc(-c3ccc4cc(C#N)cnn34)ncc2C(=O)NC[C@@H](F)C(C)(C)O)CC1 [Example 290] equals 9.00

###

System: TNFα
Test description: cells
Type: cell-based, human
Measurement parameters: Homo sapiens, Monocyte, LPS-stimulated human monocytes, TNFα content; read-out: EC50 TNF
pEC50: −log10 of the molar value.
Everything with pEC50 lower than 7 is F; everything else, including exactly 7, is T.

Observe how each entry below is paired with its result.
COCCNC(=O)C12CCC(Nc3cc(-c4ccc5cc(C#N)cnn45)ncc3C(=O)NC[C@@H](F)C(C)(C)O)(CC1)CC2; T
CC(C)(O)[C@H](F)CNC(=O)c1cnc(-c2ccc3cc(C#N)cnn23)cc1Nc1cn[nH]c1; T
CNC(=O)C12CCC(Nc3cc(-c4ccc5cc(C#N)cnn45)ncc3C(=O)NCC#N)(CC1)CC2; T
CC(C)(O)[C@H](F)CNC(=O)c1cnc(-c2ccc3cc(C#N)cnn23)cc1N[C@H]1[C@@H]2COC[C@@H]21; T
COC(=O)NC[C@H]1C[C@H](Nc2cc(-c3ccc4cc(C#N)cnn34)ncc2C(=O)NC[C@@H](F)C(C)(C)O)C1; T

Query :: Check this molecule for pEC50 at or above 7: `CC(C)(O)[C@H](F)CNC(=O)c1cnc(-c2ccc3cc(C#N)cnn23)cc1N[C@H]1C[C@H](C(C)(C)O)C1`
Result :: T

Query :: Check this molecule for pEC50 at or above 7: CC(C)(O)[C@H](F)CNC(=O)c1cnc(-c2ccc3cc(C#N)cnn23)cc1NC1CNC(=O)C1 (stereo partly shown)
Result :: F

Query :: Check this molecule for pEC50 at or above 7: `COC(=O)NC[C@H]1C[C@H](Nc2cc(-c3ccc4cc(C#N)cnn34)ncc2C(=O)NCC#N)C1`
Result :: T

Query :: Check this molecule for pEC50 at or above 7: `CC(C)Nc1cc(-c2ccc3cc(C#N)cnn23)ncc1C(=O)NCC(=O)C(C)(C)O`
Result :: T

Query :: Check this molecule for pEC50 at or above 7: CC(C)(O)[C@H](F)CNC(=O)c1cnc(-c2ccc3cc(C#N)cnn23)cc1NC1CC(Cc2cnco2)C1 (stereo partly shown)
Result :: T

Query :: Check this molecule for pEC50 at or above 7: `CC(=O)N1CCC[C@H](Nc2cc(-c3ccc4cc(C#N)cnn34)ncc2C(=O)NC[C@@H](F)C(C)(C)O)C1`
Result :: F
